IC50 values by entry
- target-system: Adrenergic receptor alpha-1 (Rattus norvegicus, UniProt P15823+P23944+P43140)
- experiment-notes: Alpha-1-adrenolytic activity was assessed from the ability to inhibit [3H]prazosin binding to rat cerebral cortex preparation
- Assay type: tissue-based
measured-parameter: IC50 (µM)

INSERT INTO assay_data (compound, measured_parameter, readout_number) VALUES
  ('CO/C(O)=C1\C(C)=NC(C)=C(C(=O)OC(C)CN(C)CC2COc3ccccc3O2)C1c1cccc([N+](=O)[O-])c1.Cl (stereo not drawn)', 'IC50', 1),
  ('CO/C(O)=C1\C(C)=NC(C)=C(C(=O)OCCN(C)CC2COc3ccccc3O2)C1c1cccc([N+](=O)[O-])c1.Cl (stereo not drawn)', 'IC50', 0.5),
  ('COC(=O)C1=C(C)NC(C)=C(C(=O)OCCN(C)Cc2ccccc2)C1c1cccc([N+](=O)[O-])c1 (stereo not drawn) [NICARDIPINE]', 'IC50', 3.6);
